Test: In vitro inhibition of lymphocyte activated CD25 antigens induced by monoclonal antibody
Assay type: functional, Homo sapiens
Catalogue of compounds with associated IC50
observationType: IC50 (µM)

> print(dat)
                                   compound  observationtype  measurementunit  resultcomparator   val
1  CC(O)=C(C(=O)Nc1ccc(C(F)(F)F)cc1)C(=O)Nc1ccc(C(F)(F)F)cc1             IC50               µM                 =  18.4
2     O=C1CCC(O)=C1C(=O)Nc1ccc(C(F)(F)F)cc1             IC50               µM                 =  14.8
3  CCO/C(O)=C(/C(C)=O)C(=O)Nc1ccc(C(F)(F)F)cc1             IC50               µM                 =  96.4
4         O=C(Nc1ccc(C(F)(F)F)cc1)c1ccccc1O             IC50               µM                 =   2.4
5    O=C1CCCC(O)=C1C(=O)Nc1ccc(C(F)(F)F)cc1             IC50               µM                 =   2.9
6     O=C1COC(O)=C1C(=O)Nc1ccc(C(F)(F)F)cc1             IC50               µM                 >   100
7  C/C(O)=C(\C#N)C(=O)Nc1ccc(C(F)(F)F)cc1 [TERIFLUNOMIDE]             IC50               µM                 =  89.9

###

Assay: In vitro inhibition of lymphocyte activated CD71 antigens induced by monoclonal antibody
Format: functional, Homo sapiens
Threshold 70 µM: IC50 strictly smaller gives condition met, otherwise condition not met.

> print(dat)
                                   compound      categorylabel
1         O=C(Nc1ccc(C(F)(F)F)cc1)c1ccccc1O      condition met
2  CCO/C(O)=C(/C(C)=O)C(=O)Nc1ccc(C(F)(F)F)cc1  condition not met
3  C/C(O)=C(\C#N)C(=O)Nc1ccc(C(F)(F)F)cc1 [TERIFLUNOMIDE]  condition not met
4     O=C1COC(O)=C1C(=O)Nc1ccc(C(F)(F)F)cc1  condition not met
5     O=C1CCC(O)=C1C(=O)Nc1ccc(C(F)(F)F)cc1      condition met
6    O=C1CCCC(O)=C1C(=O)Nc1ccc(C(F)(F)F)cc1      condition met
7  CC(O)=C(C(=O)Nc1ccc(C(F)(F)F)cc1)C(=O)Nc1ccc(C(F)(F)F)cc1      condition met

###

Assay: In vitro inhibition of expression of lymphocyte activated CD2 antigens induced by monoclonal antibody
Assay type: functional
Conditions: Homo sapiens
observationType: IC50

> print(dat)
                                   molecule  observationtype     val
1  Cc1oncc1C(=O)Nc1ccc(C(F)(F)F)cc1 [LEFLUNOMIDE]             IC50  126 µM

Source of measurements: ChEMBL document CHEMBL1130346
